# tested target: PD-1 (UniProt Q15116)
# Sequence (Q15116 25-170 limits assumed): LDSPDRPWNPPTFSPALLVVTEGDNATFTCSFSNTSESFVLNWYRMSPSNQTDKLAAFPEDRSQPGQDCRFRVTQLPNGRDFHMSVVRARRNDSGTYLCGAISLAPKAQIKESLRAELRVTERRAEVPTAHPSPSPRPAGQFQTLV
# protocol text: ELISA, TG1 supernatant on coated PD-1, anti-c-myc HRP
property: OD450, clone binding with PD-1 (OD450)
One number for each entry, in OD450.

# binder, property, value units, readout number
data = [
    ("NB171 (VHH) VHH: QVQLVESGGGLVQAGGSLRLSCAASGRTFSSYAMGWFRQALGKEREWIAGVSMSGRTTYYAAPVKDRFTISRDNAKNTVTLQMNSLKPEDTAVYYCAAGRAQAEIPIMRAQEYDSWGQGTQVTVSS", "OD450, clone binding with PD-1", "OD450", 2.78),
    ("NB734 (VHH) VHH: QVQLVETGGGLVQAGGSLRLSCAASGDTILFSAVGWHRQAPGKERELVAAITNSGVTYYADSVKGRFSISRDNAKNTVYLQMNSLKPEDTAVYYCNAGAPPPGEFGYDESDYWGQGTQVTVSS", "OD450, clone binding with PD-1", "OD450", 2.17),
    ("NB532 (VHH) VHH: QVQLVETGGGLVQAGGSLRLSCAASGRTFSSYNMGWFRQAPGKEREFVAAISWSGGSQGYAAAVKDRFTISRDNAKNTVYLQMNSLKAEDTAVYYCAAKYHSGSYYYTSIRPEEYDYWGQGTQVTVSS", "OD450, clone binding with PD-1", "OD450", 1.36),
]

# input # get_value(readout='OD450, clone binding with PD-1', item= NB164 (VHH) VHH: QVQLVESGGGLLQAGDSLRLSCIASGRTFSSYAMGWFRQAPGKEREFVAGINGNGRSQYYAEVVKDRFFISRDNAKNTVYLQMNSLKPEDTAVYYCAAEGHLGVPTVRSDEYDYWGQGTQVTVSS )
# output 2.84

Provenance of the data: patent EP4269437A1
